System: IGROV1 ovarian
method description: NCI tumour cell line growth inhibition, 48 h
*1 amine or outer side, *2 acyl side, *3 side chain or, on linkers, in order; H or OH if unused. Where a SMILES comes first, the peptide text is derived from it. Bridges are numbered along the chain shown (N, C = ends). [ ]: non-standard residue; d: D form. ξ: configuration not given here. X4 = CCC(C)C(N[*:1])C(O)CC(=O)O[C@H](C(=O)C(C)C(=O)[*:2])C(C)C; NMeY = CN[C@@H](Cc1ccc(O)cc1)C(=O)O; ξNMeL = CNC(CC(C)C)C(=O)O; ξT = CC(O)C(N)C(=O)O
Reported TGI is given for each of the following compounds.

compound	relation	TGI [µM]
CCC(C)C1NC(=O)C(NC(=O)C(CC(C)C)N(C)C(=O)[C@@H]2CCCN2)C(C)OC(=O)[C@H](Cc2ccc(OC)cc2)N(C)C(=O)[C@@H]2CCCN2C(=O)[C@H](CC(C)C)NC(=O)C(C)C(=O)[C@H](C(C)C)OC(=O)CC1O (stereo not given in full) (H-P[ξNMeL][ξT][X4]LP[NMeY](Me); ester 3-C)	=	0.0107
CCOC(=O)c1sc2c(c1OC(=O)c1ccccc1)c(=O)n(-c1ccccc1)c(=S)n2-c1ccccc1	=	43.3
C/C=C/[C@H]1O[C@@](OC)([C@@H](C)[C@H](O)[C@H](C)[C@H]2OC(=O)/C(OC)=C/C(C)=C/[C@@H](C)[C@@H](O)[C@@H](C)[C@@H](O)[C@H](C)C/C(C)=C/C=C/[C@@H]2OC)CC(OC2CC(O)C(OC(N)=O)C(C)O2)[C@@H]1C (stereo not given in full)	=	15.1
Nc1ccc(C(=O)N/C(=C\C=C\c2ccco2)c2nc3[nH]c(=S)[nH]c(=O)c3[nH]2)cc1	>	100
CSC1SCC2C(=O)N(C)C3(CC3C)C(=O)OCC(NC(=O)c3nc4ccccc4cc3O)C(=O)NC(C)C(=O)N(C)C1C(=O)N(C)C1(CC1C)C(=O)OCC(NC(=O)c1nc3ccccc3cc1O)C(=O)NC(C)C(=O)N2C (stereo not given)	=	0.281
Oc1ccc(Br)cc1Sc1cc(Br)ccc1O	=	36.3
O=C(NCCNCCO)N/N=C/c1ccc(Cl)cc1	>	100
O=C(Nc1ccccc1)c1ccc(Cl)c([N+](=O)[O-])c1	=	54.3
COC(=O)C(COC(=O)/C=C/c1ccc(OC(C)=O)c(OC(C)=O)c1)OC(=O)/C=C/c1ccc(OC(C)=O)c(OC(C)=O)c1 (stereo not given)	=	23.9
Cc1ccc(C(=O)c2oc3ccc4c(C)cc(=O)oc4c3c2C)cc1	>	100
Cc1ccc(S(=O)(=O)N2CCN(CCN(C)CCN3CCN(S(=O)(=O)c4ccc(C)cc4)CC3)CC2)cc1	=	33.6
CC1(C)C2CC(c3ccncc3)ON2C(C)(C)N1O (stereo not given)	>	100
C=CC(=O)N1CCCC(n2nc(-c3ccc(Oc4ccccc4)cc3)c3c(N)ncnc32)C1 (stereo not given)	=	14.6
COc1cc(/C=C/c2cc(C(F)(F)F)[nH]c(=O)n2)ccc1OCc1ccccc1F	=	42
CC#CC(O)(C(=O)OC1CCCN(C)C1)C1=CC=CCC1 (stereo not given)	>	100

====

Reported TGI is given for each of the following compounds.
Tested on: 786-0 renal
method description: NCI tumour cell line growth inhibition, 48 h
measured endpoint: TGI (µM)

>>> df
                                   compound  readout_units  relation  recorded_result
0  COc1ccc(/C=C/c2cc(OC)c(OC)c(OC)c2)cc1NC(=O)/C=C/c1ccc(F)cc1             µM         >              100
1  O=C(Oc1ccc(O)c2c(=O)n3c(cc12)[nH]c1ccccc13)c1ccccc1             µM         =             32.5
2   CC(C)(C)N1Cc2ccccc2/C(=C/Sc2ccccc2)C1=O             µM         =             24.8
3  COc1ccc(CNc2nc(NCc3ccc(OC)cc3)nc(N3CCOCC3)n2)cc1             µM         >              100
4  CCN(CC)CCC1CC/C(=C\c2ccc(OC)cc2)C1=O (stereo not given)             µM         >              100

====

System: SF-539 CNS
method description: NCI tumour cell line growth inhibition, 48 h
measured endpoint: TGI (µM)

                                   compound  assay_system  measured_endpoint  readout_units  relation  recorded_result
0  O=C(O)C1CCc2ccc3ccccc3c2C1c1cccc2ccccc12 (centres undefined)    SF-539 CNS                TGI             µM         =             49.8
1                Oc1ccc(N=Nc2ccc(Cl)cc2)cc1    SF-539 CNS                TGI             µM         =             36.7
2  CN(C)CCNc1nc2ccccc2c2c1c1c(n2Cc2ccccc2)-c2ccccc2C1=O    SF-539 CNS                TGI             µM         =             29.4
3                       N#CCc1nc(C#N)c(N)o1    SF-539 CNS                TGI             µM         >              100
4  O=[N+]([O-])c1ccc2[nH]cc(-c3c4ccsc4cc4[nH]c5ccc([N+](=O)[O-])cc5c34)c2c1    SF-539 CNS                TGI             µM         =             1.91
5  CC(=O)N/C(=C\c1ccc(/C=C(\NC(C)=O)c2nc3ccc(Cl)cc3[nH]2)cc1)c1nc2ccccc2[nH]1    SF-539 CNS                TGI             µM         >              100
6  O=C(/C=C/c1ccc([N+](=O)[O-])cc1)c1nc2ccccc2[nH]1    SF-539 CNS                TGI             µM         >             73.6
7                 c1ccc2c(c1)[I+]c1ccccc1-2    SF-539 CNS                TGI             µM         >               50
8  CC1=CSC2=NC(c3ccc(Cl)c(Cl)c3)=CC(c3ccc(Cl)cc3)N12 (centres undefined)    SF-539 CNS                TGI             µM         >              100

====

Test system: SK-OV-3 ovarian
method description: NCI tumour cell line growth inhibition, 48 h; in the data active = GI50 below about 0.43 µM; inactive = the rest
Labels: TRUE for active, FALSE for inactive

>>> df
                                   molecule  label_class
0  C=CC(=O)N1CCCC(n2nc(-c3ccc(Oc4ccccc4)cc3)c3c(N)ncnc32)C1 (stereo not drawn)         TRUE
1  O=[N+]([O-])c1ccc2[nH]cc(-c3c4ccsc4cc4[nH]c5ccc([N+](=O)[O-])cc5c34)c2c1        FALSE
2   Nc1c(C(=O)c2ccccc2)sc2nc(-c3cccs3)ccc12         TRUE
3               Oc1ccc(Br)cc1Sc1cc(Br)ccc1O        FALSE
4  Clc1nc(Oc2ccccc2)nc(-c2cn(-c3ccccc3)c3ccccc23)n1        FALSE
5  CC(=O)Oc1cc(C)ccc1[C@]1(C)CC[C@H](C)/C1=C\Br        FALSE
6  CN(C)CCNc1nc2ccccc2c2c1c1c(n2Cc2ccccc2)-c2ccccc2C1=O        FALSE
7       CCCCNc1nc(NC(C)(C)C)nc(NC(C)(C)C)n1        FALSE

====

Test system: HL-60(TB) leukemia
method description: NCI tumour cell line growth inhibition, 48 h
Reported TGI is given for each of the following molecules.
measured endpoint: TGI

molecule	recorded result
NC(=O)CC(Nc1ncc2c(n1)-c1ccccc1OC2)C(=O)O (stereo unspecified)	36.8 µM
CCC(=O)c1cn(C)c(=O)c2ccccc12	> 100 µM
Cc1nc(N)sc1C(=O)/C=C/c1ccc(/C=C/C(=O)c2sc(NC(=O)CCCCCCCCC(=O)Nc3nc(C)c(C(=O)/C=C/c4ccc(/C=C/C(=O)c5sc(N)nc5C)cc4)s3)nc2C)cc1	> 100 µM
Cc1cc2c(CC(=O)O)[nH]nc2c(C(=O)O)c1C	> 100 µM
N#CCCN(CCCN(C(=O)Nc1ccccc1)c1ccccc1)C(=O)Nc1ccccc1	> 100 µM
C=CCn1c(C)nc2cc(Nc3nc(Nc4ccc5nc(C)n(CC=C)c5c4)c4ccccc4n3)ccc21	4.13 µM
O=c1cc(-c2ccccc2)[nH]c2cccc(S)c12	> 100 µM
CCN(CC)CCCCC1CCN(CC(=O)N2CC(C)C(=O)Nc3ccccc32)CC1 (stereo unspecified)	> 100 µM
CCOC(=O)C(Cc1ccccc1)(Cc1ccc(O)cn1)NC(=O)c1ccccc1 (stereo unspecified)	43.8 µM
CCOC(=O)C(O)(NC(C)=O)C(F)(F)F (stereo unspecified)	> 100 µM
C=CC(=O)N1CCCC(n2nc(-c3ccc(Oc4ccccc4)cc3)c3c(N)ncnc32)C1 (stereo unspecified)	44.5 µM
